Reference source for all entries: patent US20110112135A1

Tested on: ABCA1 gene
Test: Quantitative analysis of ABCA1 gene regulation in THP-1 cells (real-time PCR)
Assay type: cell-based, human
Conditions: Gene regulation by LXR (Human); differentiated THP-1 cells, 18 hrs, ABCA1 mRNA; read-out: EC50 ABCA1
pEC50: −log10 of the molar value.
Decide by pEC50: equal to or exceeding 6 means yes (1), less means no (0).

Please review the entries below; each comes with its answer.
{"compound.structure.string": "CCc1nc2c(C#N)cccn2c1-c1cccc(Oc2cccc(S(=O)(=O)N(C)Cc3ccc(OC)cc3)c2)c1", "class": "yes (1)"}
{"compound.structure.string": "CCS(=O)(=O)c1cccc(Oc2cccc(-c3c(C(C)(C)C)nc4c(C#N)cccn34)c2)c1", "class": "yes (1)"}
{"compound.structure.string": "CC(C)c1nc2c(C#N)cccn2c1-c1cc(Oc2cccc(S(C)(=O)=O)c2)ccc1Cl", "class": "yes (1)"}

API: above_or_equal(metric=pEC50, cutoff=6) for item CS(=O)(=O)c1cccc(Oc2ccc(-c3c(-c4ccsc4)nc4c(C(F)(F)F)cccn34)cc2)c1 yes (1)

API: above_or_equal(metric=pEC50, cutoff=6) for item CC(C)c1nc2c(C(F)(F)F)cccn2c1-c1ccc(-c2ccc(S(=O)(=O)C(C)C)cc2)cc1 no (0)

API: above_or_equal(metric=pEC50, cutoff=6) for item CCCS(=O)(=O)c1cccc(Oc2cccc(-c3c(CC)nc4c(C(F)(F)F)cccn34)c2)c1 yes (1)

API: above_or_equal(metric=pEC50, cutoff=6) for item CC(C)c1nc2c(C#N)cccn2c1-c1cc(Oc2cccc(S(=O)(=O)C(C)C)c2)ccc1Cl yes (1)

API: above_or_equal(metric=pEC50, cutoff=6) for item CCS(=O)(=O)c1cccc(Oc2cccc(-c3c(C(C)C)nc4c(C#N)cccn34)c2)c1 no (0)
